Reference source: PubChem BioAssay (NCI)

Test system: DU-145 prostate
Experiment: NCI-60 one-dose screen, 48 h (100 = growth as untreated, 0 = no growth, -100 = all killed)
Details: 10 µM unless noted
About 83,000 compounds went through this panel and 20% of them were active in at least one assay; those are over-represented in the sample as a whole.
Consider the following molecules and their measured growth readings.
Recorded Metric: growth (%)

| Molecule | Target Under Test | Recorded Metric | Numeric Readout |
| --- | --- | --- | --- |
| CCN(CC)CCNc1ncnc2c1cnn2-c1ccc(Cl)cc1 | DU-145 prostate | growth | 94.5 |
| CCCCN(CCC)CCCCCCCCCCN1CCCc2ccccc21 | DU-145 prostate | growth | 77.1 |
| CCCCCSc1ccc2nc(NC(=O)OCCC)sc2c1 | DU-145 prostate | growth | 43.2 |
| CC1CCCCC[N+]12CCCC2 (stereo unspecified) | DU-145 prostate | growth | 105 |
| COc1ccc(/C=N/c2cc(C(C)(C)C)nn2-c2ccccc2)cc1 | DU-145 prostate | growth | 113 |
| C=C[C@]1(C)C=C2C(=O)[C@@]3(O)OC[C@@]4(CCCC(C)(C)C43O)C2(O)C(O)C1 (stereo partly specified) | DU-145 prostate | growth | 60.2 |
| COc1ccc(/C=C2\CCCC3=C2N=C2SC=NN2C3c2ccc(OC)c(OC)c2)cc1OC (stereo unspecified) | DU-145 prostate | growth | 24.9 |
| O=C(O)c1ccc(Br)nc1 | DU-145 prostate | growth | 100 |
| CC(=O)OC1CC2C3CCC4C[C@@H](NC(=O)C=C(C)C)CC[C@]4(C)C3CC[C@]2(C)[C@H]1C(C)N(C)C (stereo partly specified) | DU-145 prostate | growth | 31.6 |
| CC(=O)Nc1nc(C)c(C(=O)NN)s1 | DU-145 prostate | growth | 105 |
| CCN(CC)CCOC(=O)c1cccnc1 | DU-145 prostate | growth | 109 |

* * *

Reported growth by item:
Tested on: SK-MEL-28 melanoma
Experiment: NCI-60 one-dose screen, 48 h (100 = growth as untreated, 0 = no growth, -100 = all killed)
Settings: 10 µM unless noted
Compounds without any hit were thinned out: in the full panel of roughly 83,000, 20% have a hit.

| Compound | Target Under Test | Reading Unit | growth |
| --- | --- | --- | --- |
| CCCCCCC(C)N(CC(C)(C)O)C(=O)c1ccc([N+](=O)[O-])cc1 (centres undefined) | SK-MEL-28 melanoma | % | 111 |
| CCOP1(=O)CC(C)=C(Cl)C(P(=O)(O)O)C1 (centres undefined) | SK-MEL-28 melanoma | % | 93.7 |
| COC(=O)c1ccc(C(=Nc2ccc(N(C)C(=O)CN3CCN(C)CC3)cc2)c2c(O)[nH]c3ccc(C(=O)OC)cc23)cc1 | SK-MEL-28 melanoma | % | 50.4 |
| CC(=O)Oc1cc2ccccc2cc1C(C)C | SK-MEL-28 melanoma | % | 113 |

* * *

Test system: SK-OV-3 ovarian
Assay: NCI-60 one-dose screen, 48 h (100 = growth as untreated, 0 = no growth, -100 = all killed)
Details: 10 µM unless noted
This is part of a sample that, as a whole, favours compounds with a hit. Of some 83,000 tested, about 20% had one in any assay.
We begin with a simple list: items and their reported growth.

| Compound | growth (%) |
| --- | --- |
| S=C(N/N=C/c1cc(Cl)cc(Cl)c1)NC12CC3CC(CC(C3)C1)C2 | 66.7 |
| COC(=O)c1cc(O)c2cc3c(cc2c1-c1cc(OC)c(OC)c(OC)c1)OCO3 | 22.2 |
| CCCCCCCCCCCCCCCC[n+]1cccc(C#N)c1 | 100 |
| COc1cc(-c2nn(-c3ccc(NC(=O)Nc4ccc(Cl)c(C(F)(F)F)c4)cc3)cc2-c2ccncc2)ccc1Cl | 10.7 |
| Cc1nc2c(nnn2-c2ccccc2)c2nc(-c3ccccc3)oc(=O)c12 | 115 |
| Clc1ccc(I)c2ccccc12 | 103 |
| NC(N)=Nc1ccc(/C=C2\C=Cc3ccccc32)cc1 | 78.6 |
| NC(=O)CC(NC(=O)COc1ccc(Cl)cc1Cl)C(=O)O (stereo unspecified) | 110 |
| COc1cc(N)c2nccc(C)c2c1OC | 108 |
| CCC(C)C1NC(=O)C(CC(C)C)NC(=O)C(C)NC(=O)C(C(C)C)NC(=O)C(CCCCN)NC(=O)C(CC(C)C)NC(=O)C(C(C)C)NC(=O)[C@H](C)NC(=O)C(C(C)CC)NC(=O)C(CCCN=C(N)N)NC(=O)C(CCCCN)NC(=O)C(CCCN=C(N)N)NC(=O)C(CCCCN)NC(=O)C([C@H](C)CC)NC(=O)C(CCCCN)NC1=O (stereo partly specified) | 10.4 |
| Cc1ccnc2c(NC(C)CCCN)cc(O)c(O)c12 (stereo unspecified) | 99.9 |

* * *

Test system: SW-620 colon
Assay: NCI-60 one-dose screen, 48 h (100 = growth as untreated, 0 = no growth, -100 = all killed)
Conditions: 10 µM unless noted
This is part of a sample that, as a whole, favours compounds with a hit. Of some 83,000 tested, about 20% had one in any assay.
Listed here are molecules together with their documented growth.

| Smiles Code | growth / % |
| --- | --- |
| CCCC[N+](C)(N)CCCC | 101 |
| COc1cc(-c2nn(-c3ccc(NC(=O)Nc4ccc(Cl)c(Cl)c4)cc3)cc2-c2ccncc2)ccc1Cl | 35.2 |
| CCN(CC)CCNc1ncnc2c1cnn2-c1ccc(Cl)cc1 | 63 |
| COc1cc(-c2cc3cnccc3c3nc(N)c4ccncc4c23)cc(OC)c1OC | 46.8 |
| COc1cc(-c2nn(-c3ccc(NC(=O)c4ccc(Cl)c(Cl)c4)cc3)cc2-c2ccncc2)ccc1Cl | 48.6 |
| COc1cc2c(/C=C3\C(=O)Nc4ccc(Br)cc43)c(Cl)n(C)c2cc1C | 31.9 |
| Cc1ncc(C(=O)Nc2ccc(CN3CCN(C)CC3)c(C(F)(F)F)c2)cc1C#Cc1cnc(NC2CC2)c2ncccc12 | -74.3 |
| Cc1nc(N)sc1C(=O)NCCO | 109 |
| Cc1ccc(OCCn2ccc(=O)n(CCOc3ccc(Cl)cc3C(=O)c3cc(C)cc(C)c3)c2=O)cc1 | 29.7 |
| CC(=O)c1nn(-c2ccc(C)cc2)cc1C(=O)c1cc2c(ccc3ccccc32)oc1=O | 100 |
| O=c1[nH]c(=S)[nH]c(O)c1/C=C1\C=Nc2ccccc21 | 36.2 |

* * *

Test system: NCI-H23 lung
Assay: NCI-60 one-dose screen, 48 h (100 = growth as untreated, 0 = no growth, -100 = all killed)
Conditions: 10 µM unless noted
Compounds without any hit were thinned out: in the full panel of roughly 83,000, 20% have a hit.
The compounds listed here are annotated with their growth.

| Compound | growth [%] |
| --- | --- |
| CCOC(=O)C(C)C(C)(O)c1ccccc1 (stereo not drawn) | 98.5 |
| COc1ccc(Cn2cc3c(c2-c2ccccc2)CCc2cnoc2-3)cc1N | 20.5 |
| COc1cccc(CNC(=O)c2cccc(C3CC(=O)c4c(cc(OC)c(OC)c4OC)O3)c2)c1 (stereo not drawn) | 99.1 |
| C=C(NC(=O)[C@H](C(C)C)N(C)c1cccc2[nH]ccc12)C(=O)OC | 99.8 |
| c1ccc(Nc2ccccn2)cc1 | 103 |
| CCCCCCCCCCCCCCCCNC(=O)Nc1ccc(C)c(NC(=O)NCCCCCCCCCCCCCCCC)c1 | 111 |
| C[C@@H](c1ccc2c(c1)[nH]c1ccc(Cl)cc12)c1nc2ccc(Cl)cc2[nH]1 | 85.6 |
| O=C(O)/C(Br)=C/c1c[nH]c2ccc(Br)cc12 | 99.6 |
| Nc1nc2c(c3cnccc13)C(c1ccc(Cl)c(Cl)c1)Cc1cnccc1-2 (stereo not drawn) | -37.6 |
| Cc1c(CN(C)C)cc(C(C)C)cc1C(C)C | 102 |
| COC(=O)/C=C1/CCCCC1(C)C(=O)OC (stereo not drawn) | 109 |
| C#CCCCCCCC[C@@H]1OC(=O)[C@H]([C@@H](C)CC)NC(=O)[C@H]([C@@H](C)CC)NC(=O)CC(=O)[C@@H]1C | 99.8 |
| Cc1nnc(-c2cc3c(ccc4ccccc43)oc2=O)c2cn(-c3ccc(Cl)cc3)nc12 | 86.9 |

* * *

Test system: A498 renal
Assay: NCI-60 one-dose screen, 48 h (100 = growth as untreated, 0 = no growth, -100 = all killed)
Conditions: 10 µM unless noted
The panel holds about 83,000 compounds, 20% with a hit somewhere; the sample as a whole holds those more often. Activity calls are given as the source filed them. How the source made its calls: active means growth percent below 10; inactive means the rest.
Recorded Metric: growth

| Molecule | Recorded Metric | Result |
| --- | --- | --- |
| CCCOC(=O)c1c(C)n(C)c2scc[n+]12 | growth | 48.8% (inactive) |
| BrCCCOc1ccc(Oc2ccc(OCCCBr)cc2)cc1 | growth | 99.4% (inactive) |
| CCC(C)[C@H](NC(=O)Nc1cc(C(F)(F)F)cc(C(F)(F)F)c1)C(=O)N[C@@H](Cc1cn(C)cn1)C(=O)OC (stereo partly specified) | growth | -94.4% [100 µM] (active) |
| COc1ccc(C2=NN(C(=O)c3cc(-c4ccc(C)cc4)nc4ccccc34)C(c3cc(-c4ccccc4)nn3-c3ccccc3)C2)cc1 (stereo unspecified) | growth | 91% (inactive) |
| N=C(N)c1ccc(-c2ccc(-c3ccc(F)cc3)s2)cc1 | growth | -87.8% (active) |
| Cc1nnc(/N=C2\NC(=O)/C(=C/C=C/c3ccccc3)S2)s1 | growth | 65.3% (inactive) |
| COc1cc2ncnc(-n3ncc4cc(NC(=O)Nc5ccc(Cl)c(C)c5)ccc43)c2cc1OC | growth | 101% (inactive) |
| O=C1C(Br)=CC2C1C1C3CCC3C2(Br)C12OCCO2 (stereo unspecified) | growth | 52.4% (inactive) |
| CC[N+](C)(C)N | growth | 121% (inactive) |
| CCCCCCCCCCCCCCCC[n+]1cccc(C#N)c1 | growth | 86.6% (inactive) |
| C=C(C)[C@@H]1CC[C@]2(COC(=O)c3ccccc3C(=O)O)CC[C@]3(C)[C@H](CC[C@@H]4[C@@]5(C)CCCNC(C)(C)[C@@H]5CC[C@]43C)[C@@H]12 | growth | 113% (inactive) |
| COc1cccc(CNC(=O)c2cccc(C3CC(=O)c4c(cc(OC)c(OC)c4OC)O3)c2)c1 (stereo unspecified) | growth | 81.7% (inactive) |
| COc1cc2ncnc(Nc3ccc4c(cnn4C(=O)Nc4ccccc4)c3)c2cc1OC | growth | 65.1% (inactive) |
| COC(=O)Nc1nc2ccc(C(=O)c3ccccc3N(C)C3COC3)cc2[nH]1 | growth | 9.85% (active) |
| COc1cccc2c1n([O-])c1cccc(OC)c1[n+]2=O | growth | 106% (inactive) |
| Oc1ccccc1/C=N/N=C\c1ccccc1Cl | growth | 141% (inactive) |
